Tested on: SK-OV-3 ovarian
EXPERIMENT_NOTES: NCI-60 one-dose screen, 48 h (100 = growth as untreated, 0 = no growth, -100 = all killed)
TEST_CONDITIONS: 10 µM unless noted
Description: Growth inhibition of the SK-OV-3 human tumor cell line is measured as a screen for anti-cancer activity. Cells are grown in 96 well plates and exposed to the test compound for 48 hours. Compounds are tested at a single concentration, which is 10^-5 M for most compounds. The reported endpoint is percent growth (GI% or GIPRCNT), where numbers from 0 - 100% represent growth inhibition, and numbers from -100% - 0 represent cell death. For example, a value of 40 represents 60% growth inhibition. […]
The panel holds about 83,000 compounds, 20% with a hit somewhere; the sample as a whole holds those more often.
PROPERTY_MEASURED: growth (%)
Numbers only; they are read as %.

Example results:
>>> measurement("CCCCCCCCCCCCCCCCCCOc1ccccc1CC(=O)OCC[N+](C)(C)C")
56.2
>>> measurement("COc1ccc(/C=C(\\C#N)n2nnc3cc(F)c(F)cc32)cc1")
69.6
>>> measurement("O=S(=O)(NCCNc1nccc(-c2c(-c3ccc(F)c(O)c3)nc3occn23)n1)c1ccc(Cl)cc1")
87.1
>>> measurement("S=c1sc2c(Cl)nc(-c3cccnc3)nc2n1-c1ccccc1")
87.9
>>> measurement("COc1ccc(/C=C(\\C#N)n2nnc3ccc(Cl)cc32)cc1")
108

# get_value(readout='growth', item= N#Cc1c(-c2ccc(Cl)cc2)c(C#N)c2c(C#N)c(N)nn2c1N )
70.5

# get_value(readout='growth', item= Nc1ncnc2c1C(c1ccc(Br)cc1)c1sc3c(F)cccc3c1O2 (stereo unspecified) )
102
